Test system: MDA-MB-468 breast
runDescription: NCI-60 one-dose screen, 48 h (100 = growth as untreated, 0 = no growth, -100 = all killed)
testParameters: 10 µM
The panel holds about 83,000 compounds, 20% with a hit somewhere; the sample as a whole holds those more often.

compound	studyTarget	growth, %
Cc1ccn2c(C(=O)c3ccc(Br)cc3)cc(-c3cc(-c4ccc(N(C)C)cc4)c(C#N)c(N)n3)c2c1	MDA-MB-468 breast	-15
COc1ccccc1C(=O)NNC(=O)CSc1nc2c(c(=O)[nH]1)CCCC2	MDA-MB-468 breast	120
COc1ccc2nc(Cl)c(-c3cc(-c4ccccc4)nc(=O)[nH]3)cc2c1	MDA-MB-468 breast	28.5
CC1=C(C(=O)OC(C)C)C(c2ccc(O)cc2)NC(=S)N1 (centres undefined)	MDA-MB-468 breast	99

---

System: NCI-H322M lung
runDescription: NCI-60 one-dose screen, 48 h (100 = growth as untreated, 0 = no growth, -100 = all killed)
testParameters: 10 µM
This is part of a sample that, as a whole, favours compounds with a hit. Of some 83,000 tested, about 20% had one in any assay.
Let's look at some molecules and their measured growth.
reportedEndpoint: growth (%)

Cc1cc(C)cc(Oc2cccc(-c3c(C)nnn3C3CCN(CCN(C)C)CC3)n2)c1 40
COc1ccc(/C(CSc2nnc(-c3c[nH]c4ccccc34)n2-c2ccccc2)=N/O)cc1 36.4
COc1ccc(C(=O)/C=C/c2ccc(Cl)c(C(F)(F)F)c2)cc1S(N)(=O)=O -100
CCCCOc1ccc(Nc2nc3ccccc3nc2Nc2ccc(OCCCC)cc2)cc1 106
CCOC(=O)CNC(=O)CN(Cc1ccccc1)C(=O)[C@@]1(C)CCC[C@]2(C)[C@H]3CC4C(C(C)C)=C[C@]3(CC[C@H]21)[C@@H]1C(=O)CCC(=O)[C@H]41 86.5
COc1ccc(CCN2C(=O)/C(=C/c3csc(C#N)n3)SC2=S)cc1 86.4
COc1ccc2ncc(C#Cc3cncc(C(=O)Nc4ccc(CN5CCN(C)CC5)c(C(F)(F)F)c4)c3)n2n1 -98
CNCc1cccc2c1OCCCCCC[C@@](C)(O)CC1(CC1)S(=O)(=O)c1ccc(cc1)-c1cnc(N)c(n1)C(=O)N2 -96.8

---

System: NCI-H226 lung
runDescription: NCI-60 one-dose screen, 48 h
testParameters: 10 µM
Compounds without any hit were thinned out: in the full panel of roughly 83,000, 20% have a hit. The source made the active and inactive calls. How the source made its calls: active means growth percent below 10; inactive means the rest.
Possible outcomes: yes for active, no for inactive

compound	assignedClass
CCOC(=O)C1=C(N)N(c2ccccc2)C2=C(C(=O)CC(C)(C)C2)C1c1ccccc1OC (centres undefined)	no
COC(=O)c1c(C(=O)OC)c2n(c1C)[C@@H]([C@@H](C)[C@H]1CC[C@H]3[C@@H]4CCC5=CC(=O)CC[C@]5(C)[C@H]4CC[C@]13C)SC2	no
CC(C)(C)Nc1nc2cc(Cl)c(Cl)cc2nc1S(C)(=O)=O	yes
COc1cccc2nc(Nc3ccc(F)c(NC(=O)c4ccc(CN5CCN(C)CC5)c(C(F)(F)F)c4)c3)ccc12	no

---

System: CAKI-1 renal
runDescription: NCI-60 one-dose screen, 48 h
testParameters: 10 µM
The panel holds about 83,000 compounds, 20% with a hit somewhere; the sample as a whole holds those more often. Activity calls are given as the source filed them. The calls were made as follows: active = growth percent below 10; inactive = the rest.
Labels: active, inactive

compound	assignedClass
COc1ccc(C(=O)NC(=S)N2CCN(c3ncnc4c3cnn4-c3ccccc3)CC2)cc1	inactive
O=C1CCC(N2Cc3cc(NC(=O)COc4ccccc4)ccc3C2=O)C(=O)N1 (stereo unspecified)	inactive
CN1CCc2c(sc3ncnc(N/N=C/c4ccc5ccccc5c4)c23)C1	inactive
CC(=O)Oc1ccccc1C(=O)Oc1ccc(C(=O)/C=C/c2ccncc2)cc1	inactive
O=C(Cn1cc(CSc2nnc3oc4ccccc4n23)nn1)Nc1ccc(Br)cc1	inactive
CCOc1ccc(Nc2nc3ccccc3nc2Nc2ccc(OCC)cc2)cc1	inactive
O=C(CNc1nc(-c2ccccc2)cs1)Nc1ccc(Cl)cc1[N+](=O)[O-]	active
C#CCNC(=O)CCC(=O)OC[C@]12CC[C@@H](C(=C)C)[C@@H]1C1CC[C@@H]3[C@@]4(C)CCCNC(C)(C)[C@@H]4CC[C@@]3(C)[C@]1(C)CC2 (stereo partly specified)	inactive
CCOc1ccc2ncc(C#Cc3cncc(C(=O)Nc4ccc(CN5CCN(C)CC5)c(C(F)(F)F)c4)c3)n2n1	inactive
COc1cccc(C(N)=Nc2ccc(OCCCCCCn3cncn3)cc2)c1	inactive
Cc1ccc(-c2ccc(SCC(=O)Nc3ccc(S(N)(=O)=O)cc3Br)nn2)cc1	inactive
C=C(C)[C@@H]1CC[C@]2(C(=O)OC)CC[C@]3(C)[C@H](CC[C@@H]4[C@@]5(C)CC[C@H](N)C(C)(C)[C@@H]5CC[C@]43C)[C@@H]12	active
O=C(NO)c1ccc(CNC(=O)[C@H]2Cc3c([nH]c4ccccc34)[C@H](c3ccc(Cl)cc3)N2)cc1	inactive
CC[C@]12C=CCN3CC[C@@]4(c5cc(C#CCNc6ccc(C)c(Nc7nccc(-c8cccnc8)n7)c6)c(OC)cc5N(C)[C@H]4[C@@](O)(C(=O)OC)[C@@H]1OC(C)=O)C32 (stereo partly specified)	inactive
Cc1ccc(-c2cc(C(=O)N=Nc3c(O)[nH]c4ccccc34)c3ccccc3n2)cc1	inactive
O=C1Nc2cc(-c3ccc(NC(=O)c4cccc([N+](=O)[O-])c4)cc3)ccc2/C1=C/c1ccc[nH]1	inactive
O=C1NC(=NC23CC4CC(CC(C4)C2)C3)N/C1=C\c1ccc2ncsc2c1	active
CN(C(=O)c1ccc(C(C)(C)C)cc1)c1sc2c(c1C#N)CCC(=O)C2	inactive
O=C(NO)c1ccc(CNC(=O)[C@H]2Cc3c([nH]c4ccccc34)[C@H](c3ccccc3)N2)cc1	inactive
O=C(CNc1nc(-c2ccccc2)cs1)Nc1cccc([N+](=O)[O-])c1	active
Cc1ccc(-c2nc(Nc3ccccc3C(=O)O)c3ccccc3n2)cc1	inactive
COc1ccccc1[C@H]1C(C(=O)c2ccc(Cl)cc2)C2(N[C@@H]1c1ccccc1)C(=O)Nc1ccccc12 (stereo partly specified)	active
COc1ccc(-c2nc(S(=O)(=O)c3ccccc3)c(S(C)(=O)=O)o2)cc1	active
CN(C)c1ccc(/C=C/c2nc3ccccc3c(=O)n2CC(=O)Nc2ccc(Cl)cc2)cc1	inactive
COc1cccc(COc2ccc(/C=C3\Oc4cc(O)ccc4C3=O)cc2)c1	active
COc1ccc(-c2cc(-c3cc(C(=O)c4ccccc4)n4ccc(C)cc34)nc(N)c2C#N)cc1	inactive
COc1cnc2c(c1)C(=O)c1c-2n(CCCNCCO)c(=O)c2cc(OC)c(OC)cc12	inactive
COc1ccc(NC(=O)CSc2nnc(-c3ccc4nc(-c5ccc(Cl)cc5)[nH]c4c3)o2)cc1	inactive
Cn1cc(-c2cc(N)n3nc(-c4c[nH]c5ccc(Br)cc45)cc3n2)c2cccnc21	active
Cc1cccc(-c2nc(Nc3ccccc3C(=O)O)c3ccccc3n2)c1	inactive
Clc1ccc(/C=N/Nc2ncnc3sc4c(c23)CCN(Cc2ccccc2)C4)cc1	inactive
O=C(c1ccc(Cl)cc1)C1[C@H](c2ccccc2Br)[C@@H](c2ccccc2)NC12C(=O)Nc1ccc(Br)cc12 (stereo partly specified)	active
Cc1ccc2nc(COc3ccc(C(=O)NNC(=S)NC(=O)c4ccccc4)cc3)[nH]c2c1	inactive
Cc1cc(C)cc(Oc2cccc(-c3c(C)nnn3C3CCN(CCN(C)C)CC3)n2)c1	active
CC(=O)NCC1=C(C)C=C2C(=O)[C@](C)(O)C3(CC3)C(C)=C21	active
C/C(=N\N=C\c1ccc(N(C)C)cc1)c1ccc2c(c1)Nc1ccccc1S2	inactive

---

System: RPMI-8226 leukemia
runDescription: NCI-60 one-dose screen, 48 h (100 = growth as untreated, 0 = no growth, -100 = all killed)
testParameters: 10 µM
The panel holds about 83,000 compounds, 20% with a hit somewhere; the sample as a whole holds those more often.
reportedEndpoint: growth (%)

N#Cc1c(-c2ccc(F)cc2)nc(SCc2ccc([N+](=O)[O-])cc2)nc1N1CCOCC1 80.3
Cc1cc(C)nc(NS(=O)(=O)c2ccc(N/C(N)=N/c3nccc(-c4ccccc4)n3)cc2)n1 60.8
CC(=O)Nc1ccc(-c2cn(-c3cccc(C(=O)Nc4ccc(F)c(C(F)(F)F)c4)c3)nn2)cn1 66.6
O=C1Nc2cc(Cl)ccc2/C1=C/c1cccc(OCc2ccc(Br)cc2F)c1 -20.1
COc1ccc2ncc(C#Cc3cncc(C(=O)Nc4ccc(CN5CCN(C)CC5)c(C(F)(F)F)c4)c3)n2n1 -26.3

---

System: HOP-62 NSCLC
runDescription: NCI-60 one-dose screen, 48 h (100 = growth as untreated, 0 = no growth, -100 = all killed)
testParameters: 10 µM
This is part of a sample that, as a whole, favours compounds with a hit. Of some 83,000 tested, about 20% had one in any assay.
Label T when growth >= 10%; otherwise F.

compound	assignedClass
O=C(Nc1cccc(C(F)(F)F)c1)c1cncc(C#Cc2cnc3ccc(N4CCOCC4)nn23)c1	F
O=c1oc2ccc(-c3ccc(F)cc3F)cc2c(=O)n1-c1ccc(F)c(Cl)c1	F
Cc1cccc(-c2nc(Nc3ccccc3C(=O)O)c3ccccc3n2)c1	T
CCCS(=O)(=O)c1oc(-c2ccc(F)cc2)nc1S(=O)(=O)c1ccc(F)cc1	T
COc1cccc(-c2ccnc(/N=C(\N)Nc3ccc(S(=O)(=O)Nc4nc(C)cc(C)n4)cc3)n2)c1	T
O=C(NO)c1ccc(CNC(=O)[C@H]2Cc3c([nH]c4ccccc34)[C@H](c3ccc(Cl)cc3)N2)cc1	F
CN(C)c1ccc(/C=C/C(=O)c2ccc(NC(=O)CN3C(=O)NC(C)(c4ccccc4)C3=O)cc2)cc1 (centres undefined)	T
Cc1noc2c(Cc3ccccc3)nn(CC(=O)N/N=C/c3ccc(F)cc3)c(=O)c12	T
Nc1nc2c(F)c(F)c(F)c(F)c2s1	T
CCOC(=O)c1c(CSc2ccccc2)n(C)c2cc(CN(C)C)c(O)c(CN(C)C)c12	T
CCCCCCCCCCCCCCCCCCCC(=O)NCCc1c[nH]c2ccc(OC(=O)NOCCOCCOCCOCCOCCOCCOCCOCCOCCOCCOCCOCCOCCOCCOCCOCCOCCOCCOCCOCCOCCOCCOC)cc12	F
CC(=O)Nc1ccc(-c2cn(-c3cccc(C(=O)Nc4ccc(Cl)c(C(F)(F)F)c4)c3)nn2)cn1	F
Cc1ccc(-c2cc(C(=O)N=Nc3c(O)[nH]c4ccc(Br)cc34)c3ccccc3n2)cc1	T
Cc1ccc(-c2ccc(SCC(=O)Nc3ccc(S(N)(=O)=O)cc3Br)nn2)cc1	T
CN1C(=O)N(C)C2SC(N/N=C/c3ccccc3F)=NC21 (centres undefined)	T
CN1C(=O)/C(=C/c2ccc3ncsc3c2)NC1=NC12CC3CC(CC(O)(C3)C1)C2	T
CN1CCN(c2ccc(C(=O)/C=C/c3ccc(OC(F)F)cc3)cc2)CC1	T
O=C(CSc1nnc(-c2ccc3nc(-c4ccc(Cl)cc4)[nH]c3c2)o1)Nc1ccc(Cl)cc1	F
N#Cc1c(-c2ccc(Cl)cc2)cc(-c2ccccc2)nc1OCc1ccccc1	T
